# System: food-source rabbit eyes (cornea)
# experimentalParameters: rabbit, 1 min
# From the text: Because of these modifications, we have updated our prediction model to include the metabolic test to identify reversible irritants or toxicity as shown in FIG. 3. […]
Each record here notes measured Direct (depth of injury, stromal).
Just the number in %, nothing appended.

Query: Quick check: Direct (depth of injury, stromal) on food-source rabbit eyes (cornea), item CC(O)CC(C)O (stereo not drawn) ?
Response: 0.0

Others:
Query: Query for food-source rabbit eyes (cornea): what Direct (depth of injury, stromal) does the record show for CC(O)CO (stereo not drawn) ?
Response: 0.0

Query: For the record OCC(O)CO , what value of Direct (depth of injury, stromal) is listed for food-source rabbit eyes (cornea)?
Response: 0.0

Query: Any idea what Direct (depth of injury, stromal) came out for CCC(C)(C)C(=O)O on food-source rabbit eyes (cornea)?
Response: 27.4

Query: Form: Entry = CC(=O)CC(=O)OC(C)C [Isopropyl acetoacetate] | System = food-source rabbit eyes (cornea) | Direct (depth of injury, stromal) = ____
Response: 0.0

Query: Provide the documented Direct (depth of injury, stromal) with food-source rabbit eyes (cornea) as the system for CC(C)CC(=O)CC(C)C
Response: 0.0

###

# Test system: food-source rabbit eyes (cornea)
# experimentalParameters: 100 µL, 1 minute exposure, tear solution wash, 24 hours organ culture
# Excerpt: Because of these modifications, we have updated our prediction model to include the metabolic test to identify reversible irritants or toxicity as shown in FIG. 3. […]
Items are presented alongside their recorded Direct (depth of injury, stromal).
Just the number please, in %, no unit attached.

Query: Any idea what its Direct (depth of injury, stromal) is? The molecule is C=CC(=O)OCCO [Hydroxyethyl acrylate]
Response: 100.0

Query: Quick check: Direct (depth of injury, stromal) of N#CCCCl ?
Response: 12.0

Query: Fill blank: measured Direct (depth of injury, stromal) of the molecule OC1CCCCC1 is ____.
Response: 29.6

Query: Given the molecule BrCCCCCCBr , what is its reported Direct (depth of injury, stromal)?
Response: 0.0

Query: # Direct (depth of injury, stromal) lookup, item CCCCCCCCBr [n-Octyl bromide]
Response: 0.0

Query: For CCCCCC , what is its reported Direct (depth of injury, stromal)?
Response: 0.0

New cases:
Query: // lookup Direct (depth of injury, stromal) for OC1CCCC1
Response: 30.4

Query: Any idea what its Direct (depth of injury, stromal) is? The molecule is C[Si](C)(C)O[Si](C)(C)C
Response: 0.0

Query: Reported Direct (depth of injury, stromal) for C=CC(=O)OCCCCCC(C)C [iso-Octyl acrylate] : what is it?
Response: 0.0

Query: Direct (depth of injury, stromal); subject: CCCOCC(C)O (stereo not shown)
Response: 18.3

Query: If you can, please state the reported Direct (depth of injury, stromal) value of CCC(C)c1ccccc1 (stereo not shown) .
Response: 0.0

Query: Give its Direct (depth of injury, stromal) value. Item: O=S(=O)(Cl)c1ccccc1 [Benzenesulphonylchloride]
Response: 52.8

Query: Reported Direct (depth of injury, stromal) for COCC(O)CO (stereo not shown) : what is it?
Response: 0.0

###

# Test system: food-source rabbit eyes (cornea)
# experimentalParameters: 6 minutes, 100 µL tear solution then 100 µL test material; run only where Direct was 0%
recordedEndpoint: Meta. (Metabolic)

Worked set:
Query: Suppose we examine the compound CCCCCC ; what Meta. (Metabolic) value has been reported?
Response: Neg.

Query: Given the entry C[Si](C)(C)O[Si](C)(C)C , report its measured Meta. (Metabolic).
Response: Neg.

Query: Item under review: CC(C)CCCCCOC(=O)CS [iso-Octylthioglycolate] . Reported Meta. (Metabolic)?
Response: Neg.

Query: I am curious: what Meta. (Metabolic) value has been reported for COCC(O)CO (stereo not drawn) ?
Response: Neg.

Others:
Query: # input compound: O=C(Cl)c1c(Cl)cccc1Cl [2,6-Dichlorobenzoyl chloride] ; wanted: its Meta. (Metabolic)
Response: Pos.

Query: Quick check: Meta. (Metabolic) of CCC(C)c1ccccc1 (stereo not drawn) ?
Response: Neg.

Query: Need Meta. (Metabolic), item CC(C)=O
Response: Pos.

Query: Could you tell me which Meta. (Metabolic) is on file for BrCCCCCCBr ?
Response: Neg.

Query: Entry under review: OCCCCC(O)CO (stereo not drawn) . Reported Meta. (Metabolic)?
Response: Neg.
